subject.of.test: T1, human glucose-dependent insulinotropic polypeptide receptor (human, UniProt P48546 22-466)
T1 sequence (looked up): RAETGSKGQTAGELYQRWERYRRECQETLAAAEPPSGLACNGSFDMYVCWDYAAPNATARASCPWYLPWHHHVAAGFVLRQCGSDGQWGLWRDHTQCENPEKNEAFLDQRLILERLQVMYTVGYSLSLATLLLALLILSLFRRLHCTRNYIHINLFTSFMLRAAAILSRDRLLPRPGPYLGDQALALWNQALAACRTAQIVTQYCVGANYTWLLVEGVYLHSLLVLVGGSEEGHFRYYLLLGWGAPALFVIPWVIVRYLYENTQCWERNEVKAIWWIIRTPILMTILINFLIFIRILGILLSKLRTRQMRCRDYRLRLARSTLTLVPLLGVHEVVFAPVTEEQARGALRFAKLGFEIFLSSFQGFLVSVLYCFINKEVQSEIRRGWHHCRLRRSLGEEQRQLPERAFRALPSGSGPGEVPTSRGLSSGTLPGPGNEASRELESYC
method.notes: cell-based or functional assay
*1 amine or outer side, *2 acyl side, *3 side chain or, on linkers, in order; H or OH if unused. Where no end group is shown, it is not given here. Side-chain parts run from the residue outwards. [ ]: non-standard residue; d: D form. The star is where a group is joined. C16 diacid = O=C(O)CCCCCCCCCCCCCCC(=O)*; γGlu = O=C(O)[C@H](CCC(=O)[*:2])N[*:1]; Palmitoyl = CCCCCCCCCCCCCCCC(=O)*; Decanoyl = CCCCCCCCCC(=O)*; Aib = CC(C)(N)C(=O)O
observation.type: Efficacy GIPR (%)

> print(dat)
                                      binder  observation.type  numeric.result
 1  Palmitoyl-HADGTFISDYSTILDNLAARDFINWLIQTKITD [Compound no. 4]     Efficacy GIPR              96
 2  Decanoyl-HADGTFISDYSTILDNLAAKDFINWLIQTKITKNDWKHNITQ [Compound no. 3]     Efficacy GIPR              76
 3  {C16 diacid}-H[Aib]EGTFISDYST[Aib]LDALAARDFINWLIQTKITKNDWKHNITQ-OH [Compound no. 41]     Efficacy GIPR              91
 4  Palmitoyl-HADGTFISDYSTILDNLAAKDFINWLIQTKITK [Compound no. 45]     Efficacy GIPR              91
 5  Palmitoyl-HADGTFISDYSTILDNLAARDFINWLIQTKIT [Compound no. 2]     Efficacy GIPR              80
 6  Ac-H[Aib]DGTFISDYK([γGlu-Palmitoyl])T[Aib]LDNLAARDFINWLIQTKITKNDWKHNITQ-OH [Compound no. 38]     Efficacy GIPR              81
 7  H[Aib]DGTFISDYK([γGlu-Palmitoyl])T[Aib]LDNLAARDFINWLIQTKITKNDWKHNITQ-OH [Compound no. 37]     Efficacy GIPR              95
 8  Palmitoyl-HADGTFISDYSTILDNLAARDFINWLLAQKITK [Compound no. 46]     Efficacy GIPR              98
 9  {C16 diacid}-H[Aib]DGTFISDYST[Aib]LDNLAAKDFINWLIQTKITKNDWKHNITQ-OH [Compound no. 42]     Efficacy GIPR              91
10  Palmitoyl-HADGTFISDYSTILD[Aib]LAARDFINWLIQTKITKNDWKHNITQ-OH [Compound no. 16]     Efficacy GIPR              99
11  Palmitoyl-HADGTFISDYSTILDNLAARDFINWLIQTKITD [Compound no. 1]     Efficacy GIPR              96
12  {C16 diacid}-HADGTFISDYST[Aib]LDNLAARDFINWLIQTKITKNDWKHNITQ [Compound no. 39]     Efficacy GIPR              99
13  {C16 diacid}-H[Aib]DGTFISDYST[Aib]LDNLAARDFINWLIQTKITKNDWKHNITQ-OH [Compound no. 40]     Efficacy GIPR              94
14  HXDGTFISDYKTILDNLAARDFINWLIQTKITK (Aib at 2; K(γGlu-C16) at 11; C-terminal -OH) [Compound no. 11]     Efficacy GIPR             115
15  Palmitoyl-HADGTFISDYSTILELLAARDFINWLIQTKITKNDWKHNITQ-OH [Compound no. 15]     Efficacy GIPR             106
16  H-H[Aib]DGTFISDYK([γGlu-Palmitoyl])TILDNLAARDFINWLIQTKGKKNDWKHNITQ-NH2 [Compound no. 14]     Efficacy GIPR             101
